Experimental system: KCC4 (Homo sapiens)
Construct: expressed in transfected cells; host or cells: HEK-293
Sequence (Q9Y666 whole entry): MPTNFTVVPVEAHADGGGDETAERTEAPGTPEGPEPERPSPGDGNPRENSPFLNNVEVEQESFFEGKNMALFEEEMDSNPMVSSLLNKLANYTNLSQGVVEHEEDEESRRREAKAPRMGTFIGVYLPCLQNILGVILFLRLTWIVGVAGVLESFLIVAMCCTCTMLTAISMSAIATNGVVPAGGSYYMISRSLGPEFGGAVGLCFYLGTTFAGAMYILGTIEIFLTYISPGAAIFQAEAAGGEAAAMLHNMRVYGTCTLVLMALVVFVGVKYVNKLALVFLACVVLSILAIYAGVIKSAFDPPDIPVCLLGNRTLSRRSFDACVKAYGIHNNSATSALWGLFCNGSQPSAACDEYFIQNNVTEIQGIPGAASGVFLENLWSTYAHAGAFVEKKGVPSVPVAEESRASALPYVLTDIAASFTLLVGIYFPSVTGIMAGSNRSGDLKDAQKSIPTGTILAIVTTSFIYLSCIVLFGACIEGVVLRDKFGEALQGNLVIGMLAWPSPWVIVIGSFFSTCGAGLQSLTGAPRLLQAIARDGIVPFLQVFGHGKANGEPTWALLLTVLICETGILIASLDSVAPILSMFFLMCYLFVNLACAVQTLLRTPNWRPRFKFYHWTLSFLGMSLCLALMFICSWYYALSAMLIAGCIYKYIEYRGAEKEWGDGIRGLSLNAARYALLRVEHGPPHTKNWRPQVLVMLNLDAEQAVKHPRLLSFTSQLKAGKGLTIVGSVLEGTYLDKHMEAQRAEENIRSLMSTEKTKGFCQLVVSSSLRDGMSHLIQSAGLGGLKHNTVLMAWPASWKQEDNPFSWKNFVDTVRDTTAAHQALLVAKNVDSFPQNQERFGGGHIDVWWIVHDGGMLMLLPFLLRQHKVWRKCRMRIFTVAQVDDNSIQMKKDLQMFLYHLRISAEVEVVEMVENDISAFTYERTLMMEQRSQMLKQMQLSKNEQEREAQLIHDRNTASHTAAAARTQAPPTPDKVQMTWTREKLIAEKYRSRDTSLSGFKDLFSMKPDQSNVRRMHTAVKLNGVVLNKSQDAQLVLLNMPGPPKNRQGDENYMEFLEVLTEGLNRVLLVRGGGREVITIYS
Protocol notes: Tl+ flux assay in HEK-293 cells expressing KCC4
Format: cell-based
Setup conditions: read-out: concentration at which effects on KCC4 were seen (EC50 chart, FIG. 1G)
pEC50: −log10 of the molar value.
Outcome measure: pEC50

What pEC50 value was documented for this compound, C[C@@H]1CN(c2nc3c(c(Nc4ccc(C5CCCCC5)cc4)n2)COC3)CCO1 [Compound A] ?
≤ 4.00

---

Experimental system: NKCC1 (Homo sapiens)
Construct: expressed in transfected cells; host or cells: HEK-293
Sequence (P55011 whole entry, species assumed): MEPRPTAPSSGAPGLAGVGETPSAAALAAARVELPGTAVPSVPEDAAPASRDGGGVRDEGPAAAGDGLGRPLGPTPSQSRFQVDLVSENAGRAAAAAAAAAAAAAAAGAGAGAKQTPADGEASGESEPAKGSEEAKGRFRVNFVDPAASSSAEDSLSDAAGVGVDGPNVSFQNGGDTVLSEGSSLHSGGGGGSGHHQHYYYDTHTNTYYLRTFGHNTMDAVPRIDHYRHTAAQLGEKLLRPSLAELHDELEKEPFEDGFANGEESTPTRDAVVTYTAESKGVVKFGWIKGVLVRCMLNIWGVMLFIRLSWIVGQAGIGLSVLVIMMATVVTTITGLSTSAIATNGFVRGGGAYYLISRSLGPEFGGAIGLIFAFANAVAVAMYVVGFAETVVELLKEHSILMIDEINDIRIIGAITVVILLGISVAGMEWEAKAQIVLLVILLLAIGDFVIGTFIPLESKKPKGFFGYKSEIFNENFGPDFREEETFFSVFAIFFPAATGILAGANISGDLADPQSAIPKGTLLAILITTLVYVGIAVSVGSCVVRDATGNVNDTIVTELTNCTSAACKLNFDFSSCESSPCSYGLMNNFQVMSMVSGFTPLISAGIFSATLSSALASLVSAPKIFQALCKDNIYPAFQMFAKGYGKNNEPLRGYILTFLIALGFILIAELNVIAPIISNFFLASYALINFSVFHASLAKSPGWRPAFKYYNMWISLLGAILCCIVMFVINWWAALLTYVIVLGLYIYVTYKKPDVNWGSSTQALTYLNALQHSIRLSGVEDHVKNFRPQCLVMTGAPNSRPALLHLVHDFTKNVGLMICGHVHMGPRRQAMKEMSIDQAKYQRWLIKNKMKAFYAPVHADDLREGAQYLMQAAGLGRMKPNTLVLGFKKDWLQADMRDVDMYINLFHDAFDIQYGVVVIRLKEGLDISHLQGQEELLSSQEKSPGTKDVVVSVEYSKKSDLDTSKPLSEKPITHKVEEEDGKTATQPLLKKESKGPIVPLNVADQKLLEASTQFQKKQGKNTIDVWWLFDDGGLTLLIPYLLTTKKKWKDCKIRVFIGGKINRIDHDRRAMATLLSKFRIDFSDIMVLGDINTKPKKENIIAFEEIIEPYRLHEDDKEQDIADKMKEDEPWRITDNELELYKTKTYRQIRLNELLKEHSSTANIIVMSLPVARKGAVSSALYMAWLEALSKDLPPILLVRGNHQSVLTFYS
Protocol notes: Tl+ flux assay in HEK-293 cells expressing NKCC1
Format: cell-based
Setup conditions: read-out: concentration at which effects on NKCC1 were seen (EC50 chart, FIG. 1G)
Outcome measure: EC50

Which measured EC50 belongs to C[C@@H]1CN(c2nc3c(c(Nc4ccc(C5CCCCC5)cc4)n2)COC3)CCO1 [Compound A] , tested on NKCC1 (Homo sapiens)?
≥ 100 µM
